system: MDA-MB-231; assay: NCI tumour cell line growth inhibition, 48 h
The source made the active and inactive calls. Rule as the data show it: active = GI50 up to about 1.1 µM and inactive = higher.
Returns: one label drawn from active, inactive

Solved cases below.
INSERT INTO measurements (compound, cat) VALUES
  ('CCOC(OCC)C(CCc1ccccc1)c1c(N)nc(N)[nH]c1=O (stereo not drawn)', 'inactive'),
  ('CC(=O)O/C(=C1\C[C@H]2[C@@H]3CC=C4C[C@@H](OC(C)=O)CC[C@]4(C)[C@H]3CC[C@]2(C)C1=O)C(F)(F)F', 'inactive'),
  ('CN(C)c1ccc(C=c2c3cc(O)ccc3n3c2cc(-c2ccccc2)[n+]3C)cc1', 'active'),
  ('COC(=O)[C@H](Cc1ccccc1)NC(=O)c1ccc(CNC(=O)/C=C/c2cccc(Oc3ccccc3)c2)cc1', 'inactive');

INPUT: Answer briefly: the call reported for CC1=NNC(=S)NCCCN2CCN(CCCNC(=S)NN=C(C)C=NNC(=S)NCCCN3CCN(CCCNC(=S)NN=C1)CC3)CC2 in this assay.
OUTPUT: inactive

INPUT: Assay outcome for CC(C)CC(NC(=O)C(Cc1ccccc1)NC(=O)[C@H]1CC[C@H](NC(=O)C(Cc2ccc(OC(C)(C)C)cc2)NC(=O)OC(C)(C)C)C1)C(N)=O (stereo partly drawn) : what was it?
OUTPUT: inactive

INPUT: Record request — test call for COC(=O)C(I(OS(=O)(=O)c1ccc(C)cc1)c1ccccc1)=P(c1ccccc1)(c1ccccc1)c1ccccc1
OUTPUT: inactive

INPUT: What is the recorded call for this compound in the test? COC(=O)CC(c1cn(S(=O)(=O)c2ccc(C)cc2)c2ccccc12)C1C[C@@H](C(=O)OC)N(C(=O)OC(C)(C)C)C1=O (stereo partly drawn)
OUTPUT: inactive

----------
system: COLO 205; assay: NCI tumour cell line growth inhibition, 48 h
The source made the active and inactive calls. No stated cut-off is given here; in the data, active = GI50 up to about 1.1 µM and inactive = higher.
In this exercise, the only acceptable responses are active, inactive

INSERT INTO results (molecule, target, cat) VALUES
  ('C[C@]12CC[C@H]3[C@@H](CC=C4C[C@@H](O)CC[C@@]43C)[C@@H]1C/C(=C\c1cccnc1)[C@@H]2O', 'COLO 205', 'inactive');

INPUT: Any idea what this test logged for CSc1nc(-c2ccc(Cl)cc2)c(C#N)c(=O)n1C1OC(COC(C)=O)C(OC(C)=O)C(OC(C)=O)C1OC(C)=O (centres undefined) ?
OUTPUT: inactive

INPUT: Record request — test call for CC1Cc2c(cc(N)nc2Br)NC1=O (centres undefined)
OUTPUT: inactive

INPUT: # outcome recorded in this test, key = CC(=O)NC1C(OCc2ccccc2)OC(CO)C(O)C1OC(C)C(=O)NC(C(=O)NC(CCC(=O)NCCCCNc1c2ccccc2nc2cccc([N+](=O)[O-])c12)C(N)=O)C(C)C (centres undefined)
OUTPUT: active

INPUT: Assay result, entry COC(=O)/C=C/C(=O)Nc1cc(Cl)c(Cl)cc1CC(=O)N(C)[C@H]1CCCC[C@@H]1N1CCCC1 — outcome?
OUTPUT: inactive

INPUT: Recorded call for CSc1ncc2c(n1)-c1ccccc1OC2N1CCCCC1 (centres undefined) ?
OUTPUT: inactive

----------
test system: SK-MEL-5; assay: NCI tumour cell line growth inhibition, 48 h
The source made the active and inactive calls. No stated cut-off is given here; in the data, active = GI50 up to about 1.1 µM and inactive = higher.
REPORTED PROPERTY: GI50

Some solved entries appear below for comparison.
INSERT INTO measurements (molecule, target, obs_value) VALUES
  ('O=C1N(Cl)C(=O)C(c2ccc(Cl)cc2)(c2ccc(Cl)cc2)N1Cl', 'SK-MEL-5', '> 100 µM (inactive)'),
  ('O=[N+]([O-])c1ccc2sc(/C=N/c3ccc(O)cc3)cc2c1', 'SK-MEL-5', '21.8 µM (inactive)'),
  ('C/C(=N/NC(N)=S)c1ccc2ccccc2c1', 'SK-MEL-5', '14.2 µM (inactive)');

COC1OC2=CCC3C(=O)NC(=O)C3C2[C@H](OCc2ccccc2)C1OCc1ccccc1 (stereo partly specified) tested on SK-MEL-5 gave GI50: 19 µM (inactive)

# value of GI50, SK-MEL-5, item CC(C)c1ccc(C(O)(C(=O)O)c2ccc(C(C)C)cc2)cc1 = 56.8 µM (inactive)

Record Cc1ccc(S(=O)(=O)CC2(Br)CCc3ccccc3C2=O)cc1 (stereo unspecified) ; system SK-MEL-5; GI50 = 17.6 µM (inactive)
